- target system: Aβ42 (Homo sapiens)
- assay overview: Th-T (thioflavin-T) assay of Aβ42 aggregation
- Assay type: biochemical
- condition label: column suffix _50; reading M10
Hi, to clarify the labels: true (1) covers Th-T assay signal, mean of three wells (Fig. 7a) from 0.5 upward, false (0) covers anything below 0.5.

Consider the worked cases shown below.
C=C1CCC2C(C)(CCC=C(C)C)C(O)CCC2(C)C1Cc1c(OC)oc(C)c(C(=O)OC)c1=O (centres unmarked) [Compound 14]; false (0)
C=C1CCC2C(C)(CCC=C(C)C)C(O)CCC2(C)C1Cc1c(OC)oc(CO)c(C(=O)OC)c1=O (centres unmarked) [Compound 13]; false (0)

Textbook exercise: given the entry C=C1CC[C@@H]2[C@](C)(CC[C@H]3O[C@H](C=C(C)C)C[C@@]23C)[C@@H]1Cc1c(OC)oc(CO)c(C(=O)OC)c1=O [Compound 21] , state whether its Th-T assay signal, mean of three wells (Fig. 7a) is greater than or equal to 0.5.
false (0)

// inclusive: Th-T assay signal, mean of three wells (Fig. 7a) at least 0.5? input: C=C1CCC2C(C)(CCC=C(C)C)C(O)CCC2(C)C1Cc1c(OC)oc(CO)c(C)c1=O (centres unmarked) [Compound 12]
true (1)

Evaluate C=C1CC[C@@H]2[C@](C)(CC[C@H]3O[C@H](C=C(C)C)C[C@@]23C)[C@@H]1Cc1c(OC)oc(CO)c(C)c1=O [Compound 20] : Th-T assay signal, mean of three wells (Fig. 7a) at minimum 0.5?
true (1)

* * *

Listing: Th-T fluorescence of Aβ42 with compound, mean of three wells (Fig. 7a source data) of selected molecules
- target system: Aβ42 (Homo sapiens, UniProt P05067)
- Sequence (P05067 672-713): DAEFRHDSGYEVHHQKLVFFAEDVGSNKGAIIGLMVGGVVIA
- assay overview: Th-T (thioflavin-T) assay of Aβ42 aggregation
- Format: biochemical
- condition label: concentration 10, unit not given; time-course reading M144
Provide a numeric answer; units are not to be included.

For orientation, consider the following solved cases.
C=C1CCC2C(C)(CCC=C(C)C)C(O)CCC2(C)C1Cc1c(OC)oc(C)c(C(=O)OC)c1=O (centres unmarked); 2.936
C=C1CC[C@@H]2[C@](C)(CC[C@H]3O[C@H](C=C(C)C)C[C@@]23C)[C@@H]1Cc1c(OC)oc(CO)c(C(=O)OC)c1=O; 1.716
C=C1CCC2C(C)(CCC=C(C)C)C(O)CCC2(C)C1Cc1c(OC)oc(CO)c(C)c1=O (centres unmarked); 2.211
C=C1CCC2C(C)(CCC=C(C)C)C(O)CCC2(C)C1Cc1c(OC)oc(CO)c(C(=O)OC)c1=O (centres unmarked); 1.537

Please turn your attention to the following entry.
Th-T fluorescence of Aβ42 with compound, mean of three wells (Fig. 7a source data) reading for C=C1CC[C@@H]2[C@](C)(CC[C@H]3O[C@H](C=C(C)C)C[C@@]23C)[C@@H]1Cc1c(OC)oc(CO)c(C)c1=O : 3.139

* * *

- target system: UniProt P05067
- assay overview: Th-T (thioflavin-T) assay of Aβ42 aggregation
- Assay type: biochemical
- condition label: measurement M12; source data, Ab alone and No Ab as controls
Th-T assay plate reading, mean of three wells (Supplementary Fig. 47) less than 0.9 is True; Th-T assay plate reading, mean of three wells (Supplementary Fig. 47) greater than or equal to 0.9 is False.

Below, 8 compounds whose answers are already recorded.
C=C1CCC2C(C)(CC(=O)C=C(C)C)C(O)CCC2(C)C1Cc1c(OC)oc(C)c(C)c1=O (centres unmarked); True
C=C1CCC2C(C)(CCC=C(C)C)C(O)CCC2(C)C1Cc1c(O)c(C)c(C)oc1=O (centres unmarked) [Compound 9, higginsianin B]; True
C=C1CC[C@@H]2[C@](C)(CC[C@H]3O[C@H](C=C(C)C)C[C@@]23C)[C@@H]1Cc1c(O)c(C)c(C)oc1=O; True
C=C1CC[C@@H]2[C@](C)(CC[C@H]3O[C@H](C=C(C)C)C[C@@]23C)[C@@H]1Cc1c(OC)oc(CO)c(C)c1=O; False
C=C1CCC2C3(C)CC(C=C(C)C)OC3CCC2(C)C1Cc1c(OC)oc(C)c(C)c1=O (centres unmarked); False
C=C1CC[C@H]2[C@]3(C)C[C@H](C=C(C)C)O[C@H]3CC[C@]2(C)[C@@H]1Cc1c(O)c(C)c(C)oc1=O; True
C=C1CCC2C(C)(CCC=C(C)C)C(O)CCC2(C)C1Cc1c(O)c(C)c(C)oc1=O (centres unmarked) [Compound 4]; True
C=C1CC[C@@H]2[C@](C)(CC[C@H]3O[C@H](C=C(C)C)C[C@@]23C)[C@@H]1Cc1c(OC)oc(CO)c(C(=O)OC)c1=O; True

Field: below-cutoff. Rule: recorded Th-T assay plate reading, mean of three wells (Supplementary Fig. 47) strictly less than 0.9. Subject: C=C1CC[C@H]2[C@]3(C)C[C@H](C=C(C)C)O[C@H]3CC[C@]2(C)[C@@H]1Cc1c(OC)oc(C)c(C)c1=O
False

Given C=C1CCC2C(C)(CCC=C(C)C)C(=O)CCC2(C)C1Cc1c(O)c(C)c(C)oc1=O (centres unmarked) , is recorded Th-T assay plate reading, mean of three wells (Supplementary Fig. 47) strictly lower than 0.9?
True

Th-T assay plate reading, mean of three wells (Supplementary Fig. 47) under 0.9? Item: CC(C)=CCC/C(C)=C/CC/C(C)=C/CC/C(C)=C/Cc1c(O)c(C)c(C)oc1=O
False
